# System: MCF7
# PROTOCOL: Breast Cancer Cell Proliferation Assay (MCF-7), Cell Titer-Glo
# Type: cell-based
# RUN PARAMETERS: Homo sapiens, MCF7, 120 h, MCF7 cells, 5 days of compound exposure
Measured IC50, listed per entry.

Use the examples below as a reference point.
COMPOUND	EXPERIMENTAL TARGET	IC50
C[C@@H]1Cc2c([nH]c3ccccc23)[C@@H](c2ccc(O[C@H]3CCN(CCCF)C3)cn2)N1C12CC(C1)C2 (single isomer, unassigned)	MCF7	25 to 250 nM
CCCN1C[C@@H](F)[C@@H](Nc2ccc([C@@H]3c4[nH]c5ccccc5c4C[C@@H](C)N3C34CC(C3)C4)cc2)C1 (single isomer, unassigned)	MCF7	25 to 250 nM

The record that follows has no IC50 shown yet.
-- ask Which IC50 is reported for this compound? C[C@@H]1Cc2c([nH]c3ccccc23)[C@@H](c2cnc(NC3CN(CCCF)C3)cn2)N1C12CC(C1)C2
-- reply ≤ 25 nM

====

Measured pIC50, listed per entry.
# System: MCF7
# PROTOCOL: Breast Cancer Cell Proliferation Assay (MCF-7), Cell Titer-Glo
# Assay type: cell-based
# RUN PARAMETERS: Homo sapiens, 120 h, MCF7 cells, 5 days of compound exposure
pIC50: −log10 of the molar value.

Use the examples below as a reference point.
SMILES REPR	REPORTED MEASUREMENT
C[C@@H]1Cc2c([nH]c3ccccc23)[C@@H](c2ccc(NC3CN(CCC#N)C3)cn2)N1C12CC(C1)C2	6.60 to 7.60
C[C@@H]1Cc2c([nH]c3ccccc23)[C@@H](c2c(F)cc(NC3CN(CCCF)C3)cc2F)N1C12CC(C1)C2	≥ 7.60

-- ask Which pIC50 is reported for this compound? C[C@@H]1Cc2c([nH]c3ccccc23)[C@@H](c2ccc(NC3CN(CCCF)C3)cn2)N1C12CC(C1)C2
-- reply ≥ 7.60

====

# System: MCF7
# PROTOCOL: Breast Cancer Cell Proliferation Assay (MCF-7), Cell Titer-Glo
# Format: cell-based
# RUN PARAMETERS: Homo sapiens, MCF7, 120 h, MCF7 cells, 5 days of compound exposure
pIC50: −log10 of the molar value.
QUANTITY: pIC50

COMPOUND	EXPERIMENTAL TARGET	pIC50
C[C@@H]1Cc2c([nH]c3ccccc23)[C@@H](c2c(F)cc(O[C@@H]3CCN(CCCF)C3)cc2F)N1C12CC(C#N)(C1)C2 (single isomer, unassigned)	MCF7	≥ 7.60

-- ask Which pIC50 is reported for this compound? CCCNCC1CCN(c2ccc([C@@H]3c4[nH]c5ccccc5c4C[C@@H](C)N3C34CC(C3)C4)cc2)CC1
-- reply ≥ 7.60

-- ask Which pIC50 is reported for this compound? C[C@@H]1Cc2c([nH]c3ccccc23)[C@@H](c2c(F)cc(O[C@@H]3CCN(CCCF)C3)cc2F)N1C12CC(C(N)=O)(C1)C2 (single isomer, unassigned)
-- reply 6.60 to 7.60

-- ask Which pIC50 is reported for this compound? C[C@H]1Cc2c([nH]c3ccccc23)[C@H](c2c(F)cc(O[C@@H]3CCN(CCCF)C3)cc2F)N1C12CC(C(N)=O)(C1)C2 (single isomer, unassigned)
-- reply ≤ 6.60

-- ask Which pIC50 is reported for this compound? C[C@@H]1Cc2c([nH]c3ccccc23)[C@@H](c2ccc(N[C@H]3CN(CCCF)C[C@@H]3O)cc2)N1C12CC(C1)C2 (single isomer, unassigned)
-- reply 6.60 to 7.60

-- ask Which pIC50 is reported for this compound? C[C@@H]1Cc2c([nH]c3ccccc23)[C@@H](c2ccc(N[C@H]3CCN(CCCF)C3)cn2)N1C12CC(C1)C2
-- reply ≤ 6.60
